B1: ETS1 (parent)
chain: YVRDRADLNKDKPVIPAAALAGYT

- Variants of: B1
- TEST_NAME: protein stability index of a GFP-peptide fusion (GPS, HEK-293T) (PSI 1-6); higher = more stable;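 also: lentivirally expressed fusions sorted by FACS into six bins by GFP to DsRed ratio, PSI derived from sequencing read proportions per bin multiplied by bin number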
- ASSAY_SETUP: c terminus: a fixed tail appended
# protein stability index values compiled below
Answer using only a numeral; do not append any unit.

These recorded examples may help you get a feel for the data.
[[record]]
mutation_id = "P16V"
endpoint_result = 2.44

[[record]]
mutation_id = "T24C"
endpoint_result = 2.47

[[record]]
mutation_id = "D11H"
endpoint_result = 3.35

[[record]]
mutation_id = "P13G"
endpoint_result = 2.23

[[record]]
mutation_id = "A19R"
endpoint_result = 2.53


Task: Look at this variant and give its reported protein stability index. D7N
Output: 2.98

Task: Further, for G22C ?
Output: 2.39

Task: Further, for A19E ?
Output: 1.91

Task: Further, for P13W ?
Output: 2.13

Task: Further, for D11R ?
Output: 2.17

Task: Further, for N9P ?
Output: 2.29

Task: Further, for A17G ?
Output: 3.1
